Task for the reader: assign each of the following binders its reported NKL Ortho Proliferation Signal 1:2.
Biological target: T1, orthogonal hCD122 receptor (hoRb), hCD122 with H133D and Y134F (human, UniProt P14784 27-550)
T1 sequence: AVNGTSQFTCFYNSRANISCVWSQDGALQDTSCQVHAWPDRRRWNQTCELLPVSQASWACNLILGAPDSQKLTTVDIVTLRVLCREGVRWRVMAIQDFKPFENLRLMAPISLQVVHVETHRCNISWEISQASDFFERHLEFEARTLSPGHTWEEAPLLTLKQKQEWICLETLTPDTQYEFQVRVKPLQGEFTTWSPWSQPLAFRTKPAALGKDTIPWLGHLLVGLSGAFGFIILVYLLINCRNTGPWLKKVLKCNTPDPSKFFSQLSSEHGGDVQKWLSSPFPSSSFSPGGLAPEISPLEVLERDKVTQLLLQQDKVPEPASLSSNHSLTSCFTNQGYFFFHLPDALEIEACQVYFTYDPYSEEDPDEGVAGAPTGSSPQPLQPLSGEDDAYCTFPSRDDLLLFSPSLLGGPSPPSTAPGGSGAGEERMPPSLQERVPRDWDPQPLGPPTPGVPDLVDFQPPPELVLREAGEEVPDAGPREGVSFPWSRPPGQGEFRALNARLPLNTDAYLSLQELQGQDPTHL
Experiment: cell-based or functional assay
Answer using only a numeral; do not append any unit.

Entry G27S, SQVLKA (ligand) APTSSSTKKTQLQLSQLLVLLKAILNSINNYKNPKLTRMLTFKFYMPKKATELKHLQCLEEELKPLEEVLNLAQSKNFHLRPRDLISNINVIVLELKGSETTFMCEYADETATIVEFLNRWITFCQSIISTLT : reported NKL Ortho Proliferation Signal 1:2 = ?
48900

Entry R38G, SQVLKA (ligand) APTSSSTKKTQLQLSQLLVLLKAILNGINNYKNPKLTGMLTFKFYMPKKATELKHLQCLEEELKPLEEVLNLAQSKNFHLRPRDLISNINVIVLELKGSETTFMCEYADETATIVEFLNRWITFCQSIISTLT : reported NKL Ortho Proliferation Signal 1:2 = ?
20100

Entry SQVLWA (ligand) APTSSSTKKTQLQLSQLLVLLWAILNGINNYKNPKLTRMLTFKFYMPKKATELKHLQCLEEELKPLEEVLNLAQSKNFHLRPRDLISNINVIVLELKGSETTFMCEYADETATIVEFLNRWITFCQSIISTLT : reported NKL Ortho Proliferation Signal 1:2 = ?
14000

Entry SQVLDA (ligand) APTSSSTKKTQLQLSQLLVLLDAILNGINNYKNPKLTRMLTFKFYMPKKATELKHLQCLEEELKPLEEVLNLAQSKNFHLRPRDLISNINVIVLELKGSETTFMCEYADETATIVEFLNRWITFCQSIISTLT : reported NKL Ortho Proliferation Signal 1:2 = ?
35100
